Value source: ChEMBL document CHEMBL1641440

System: MT2
Experiment: Cytotoxicity against human MT2 cells after 4 days by XTT assay
Assay type: cell-based
Settings: mt2, 96 h
I'd appreciate it if you could supply CC50 values for the items below.

**Q:** Name the reported CC50 value associated with the compound Cc1cc(=O)n2c3ccccc3n(C[C@H](O)CN3CCOCC3)c2c1C#N
**A:** > 34.1 µM

**Q:** Sample CCOc1ccc(C(=O)N(Cc2cccs2)Cc2cc3cc(C)ccc3[nH]c2=O)cc1 — what was its CC50?
**A:** 12.7 µM

**Q:** Any idea what CC50 was measured for COc1ccc2[nH]c(=O)c(CN(Cc3cccs3)C(=O)C3CCCCC3)cc2c1 ?
**A:** > 48 µM

**Q:** What measured CC50 goes with Cc1ccc2[nH]c(=O)c(CN(Cc3ccc(Cl)cc3)C(=O)c3cn4cccc(C)c4n3)cc2c1 ?
**A:** 44.5 µM

**Q:** Which CC50 is reported for this compound? Cc1ccc2[nH]c(=O)c(CN(Cc3ccco3)C(=O)c3ccc(Br)cc3)cc2c1
**A:** > 55.4 µM

**Q:** I have this compound here, Cc1ccc2[nH]c(=O)c(CN(Cc3ccco3)C(=O)c3ccccc3)cc2c1 , and I need its recorded CC50.
**A:** > 67.1 µM

**Q:** // query CC50 value for entry CCc1ccc2[nH]c(=O)c(CN(Cc3ccco3)C(=O)c3cccs3)cc2c1
**A:** > 127 µM

**Q:** I have this compound here, Cc1ccc2[nH]c(=O)c(CN(Cc3cccs3)C(=O)C3CCCCC3)cc2c1 , and I need its recorded CC50.
**A:** > 63.4 µM

**Q:** Given the entry Cc1ccc(C(=O)N(Cc2ccco2)Cc2cc3cccc(C)c3[nH]c2=O)cc1 , report its measured CC50.
**A:** 9.2 µM

**Q:** State the recorded CC50 for this entry: Cc1ccc2cc(CN(Cc3ccco3)C(=O)c3cccc(F)c3)c(=O)[nH]c2c1
**A:** > 51.2 µM

**Q:** Entry Cc1cccc2cc(CN(Cc3ccco3)C(=O)c3cccs3)c(O)nc12 has what CC50?
**A:** > 66.1 µM

**Q:** # lookup: CC50 of Cc1ccc2[nH]c(=O)c(CN(Cc3ccc4c(c3)OCO4)C(=O)c3ccccc3)cc2c1
**A:** > 117 µM

**Q:** I have this compound here, Cc1ccc(CN(Cc2cc3cc(C)ccc3[nH]c2=O)C(=O)c2ccco2)cc1 , and I need its recorded CC50.
**A:** > 19.8 µM
